target: Sigma non-opioid intracellular receptor 1 (Homo sapiens); assay: Displacement of […] from sigma-1 receptor (unknown origin) expressed in HEK cell membrane incubated for 2 hrs by liquid scintillation counter analysis
Sequence (Q99720 whole entry): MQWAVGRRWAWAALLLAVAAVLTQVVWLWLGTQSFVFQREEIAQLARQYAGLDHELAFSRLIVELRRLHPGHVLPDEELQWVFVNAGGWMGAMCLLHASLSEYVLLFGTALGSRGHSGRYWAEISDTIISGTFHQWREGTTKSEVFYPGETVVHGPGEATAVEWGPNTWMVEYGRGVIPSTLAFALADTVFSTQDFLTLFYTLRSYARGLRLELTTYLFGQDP
Attribute Measured: log10 of Ki (log10 of the value in nM)

1) CN1CC[C@]23CCCC[C@@H]2[C@H]1Cc1ccc(O)cc13	2.07
2) CN1CC[C@@]23CCCC[C@@H]2[C@@H]1Cc1ccc(OC(F)F)cc13	2.75
3) CN1CC[C@@]23CCCC[C@@H]2[C@@H]1Cc1ccc(OC(F)(F)F)cc13	2.88
4) CN1CC[C@@]23CCCC[C@@H]2[C@@H]1Cc1ccc(C(F)(F)F)cc13	2.91
5) CN1CC[C@@]23CCCC[C@@H]2[C@@H]1Cc1ccc(C(C)(F)F)cc13	2.83
6) COc1ccc2c(c1)[C@@]13CCCC[C@@H]1[C@@H](C2)N(C)CC3	1.86
7) CN1CC[C@@]23CCCC[C@@H]2[C@@H]1Cc1ccc(C(F)F)cc13	2.16

###

molecular target: hERG (KCNH2) (Homo sapiens); test: Inhibition of human ERG at 10 uM measured after 15 mins by plate reader method relative to control; type: toxicity
Sequence (Q12809 whole entry): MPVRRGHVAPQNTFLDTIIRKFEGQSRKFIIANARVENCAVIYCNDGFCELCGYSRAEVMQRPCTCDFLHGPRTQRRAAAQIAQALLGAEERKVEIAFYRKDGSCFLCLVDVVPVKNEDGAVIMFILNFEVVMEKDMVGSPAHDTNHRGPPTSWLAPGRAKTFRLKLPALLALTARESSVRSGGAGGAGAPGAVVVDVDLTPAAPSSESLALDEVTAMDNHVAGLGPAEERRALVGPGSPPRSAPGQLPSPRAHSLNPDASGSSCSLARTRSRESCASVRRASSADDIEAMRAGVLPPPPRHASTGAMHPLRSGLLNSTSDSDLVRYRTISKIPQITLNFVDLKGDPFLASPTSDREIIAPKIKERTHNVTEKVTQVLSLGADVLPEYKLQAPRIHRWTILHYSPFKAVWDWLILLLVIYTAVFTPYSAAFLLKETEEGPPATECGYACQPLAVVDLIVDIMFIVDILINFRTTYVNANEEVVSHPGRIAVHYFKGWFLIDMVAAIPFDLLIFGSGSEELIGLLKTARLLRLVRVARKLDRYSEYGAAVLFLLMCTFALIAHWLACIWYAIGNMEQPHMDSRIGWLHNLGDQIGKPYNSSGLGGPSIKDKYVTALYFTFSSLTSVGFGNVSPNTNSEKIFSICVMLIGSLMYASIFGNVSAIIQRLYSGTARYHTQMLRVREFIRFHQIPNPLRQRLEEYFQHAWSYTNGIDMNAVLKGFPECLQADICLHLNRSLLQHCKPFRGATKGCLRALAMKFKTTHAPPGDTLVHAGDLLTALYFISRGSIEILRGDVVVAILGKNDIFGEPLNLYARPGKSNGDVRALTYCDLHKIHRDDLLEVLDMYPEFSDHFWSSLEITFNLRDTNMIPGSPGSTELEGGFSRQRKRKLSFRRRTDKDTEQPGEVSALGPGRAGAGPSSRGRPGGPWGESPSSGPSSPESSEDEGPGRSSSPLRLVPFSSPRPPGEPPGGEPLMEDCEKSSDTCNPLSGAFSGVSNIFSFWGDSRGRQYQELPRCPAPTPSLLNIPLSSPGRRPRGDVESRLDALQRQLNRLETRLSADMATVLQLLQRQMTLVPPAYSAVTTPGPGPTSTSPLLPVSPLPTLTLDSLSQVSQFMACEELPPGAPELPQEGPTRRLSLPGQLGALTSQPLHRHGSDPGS
Reported inhibition at 0.25 h, 10 µM values for a set of molecules
Attribute Measured: inhibition at 0.25 h, 10 µM (%)

1. CN1CC[C@@]23CCCC[C@@H]2[C@@H]1Cc1ccc(OC(F)F)cc13	34.9
2. CN1CC[C@@]23CCCC[C@@H]2[C@@H]1Cc1ccc(C(F)F)cc13	12
3. CN1CC[C@@]23CCCC[C@@H]2[C@@H]1Cc1ccc(C(F)(F)F)cc13	5.1
4. CN1CC[C@@]23CCCC[C@@H]2[C@@H]1Cc1ccc(OC(F)(F)F)cc13	6.1
5. COc1ccc2c(c1)[C@@]13CCCC[C@@H]1[C@@H](C2)N(C)CC3	0.1

###

assay: Stability in human liver microsomes assessed as half life at 10 uM measured upto 120 mins by LC-MS/MS analysis; format: ADME, Microsome
Short version: half-life at 10 µM at least 2 h is true (1), less is false (0).

1. CN1CC[C@@]23CCCC[C@@H]2[C@@H]1Cc1ccc(OC(F)(F)F)cc13	true (1)
2. [2H]C([2H])([2H])Oc1ccc2c(c1)[C@@]13CCCC[C@@H]1[C@@H](C2)N(C([2H])([2H])[2H])CC3	true (1)
3. COc1ccc2c(c1)[C@@]13CCCC[C@@H]1[C@@H](C2)N(C)CC3	true (1)
4. CN1CC[C@@]23CCCC[C@@H]2[C@@H]1Cc1ccc(C(F)(F)C(F)(F)F)cc13	false (0)
5. CN1CC[C@@]23CCCC[C@@H]2[C@@H]1Cc1ccc(C(C)(F)F)cc13	true (1)
6. [2H]C([2H])([2H])N1CC[C@@]23CCCC[C@@H]2[C@@H]1Cc1ccc(OC(F)F)cc13	false (0)
7. [2H]C([2H])([2H])N1CC[C@@]23CCCC[C@@H]2[C@@H]1Cc1ccc(C(F)(F)C(F)(F)F)cc13	true (1)
8. [2H]C([2H])([2H])N1CC[C@@]23CCCC[C@@H]2[C@@H]1Cc1ccc(C(C)(F)F)cc13	true (1)
9. CN1CC[C@@]23CCCC[C@@H]2[C@@H]1Cc1ccc(OC(F)F)cc13	true (1)
10. [2H]C([2H])([2H])N1CC[C@@]23CCCC[C@@H]2[C@@H]1Cc1ccc(OC(F)(F)F)cc13	true (1)
11. [2H]C([2H])([2H])N1CC[C@@]23CCCC[C@@H]2[C@@H]1Cc1ccc(C(F)(F)F)cc13	false (0)
12. CN1CC[C@@]23CCCC[C@@H]2[C@@H]1Cc1ccc(C(F)F)cc13	true (1)
13. CN1CC[C@@]23CCCC[C@@H]2[C@@H]1Cc1ccc(C(F)(F)F)cc13	true (1)

Where these numbers come from: ChEMBL document CHEMBL5038679
